# PROCEDURE TEXT: Toxicity liver stage against HepG2, at 10uM
# Assay type: cell-based
# Design: test concentration 10 uM, cell line HepG2-A16-CD81EGFP
# CONDITION SET: human, HepG2-A16-CD81EGFP cells; read-out: INHIBITION
So I've got a bunch of molecules here, and I need their cytotoxicity at 10 µM values.
Answer with a number only, understood to be in %.

Problem: Give recorded cytotoxicity at 10 µM. O=C(NS(=O)(=O)Cc1ccc(F)cc1)C1CCOc2ccccc21 (stereo not drawn)
Solution: -3.22

Problem: Please give measured cytotoxicity at 10 µM of the following entry: CC(C)C1=NOC2(CCN(C(=O)C3CCCC3)CC2)C1
Solution: 6.69

Problem: Give a short answer stating reported cytotoxicity at 10 µM for N#Cc1cccnc1NCCNC(=O)N1CCCC(N2CCCC2)C1 (stereo not drawn) .
Solution: 7.61

Problem: Name the recorded cytotoxicity at 10 µM of the molecule listed here: CC(=O)Nc1nc(C(=O)N2CCC(Nc3cccnn3)CC2)cs1
Solution: -4.67

Problem: Check the records and state cytotoxicity at 10 µM for CCc1noc(C2CCCCN2C(=O)c2ccccc2)n1 (stereo not drawn)
Solution: -2.38

Problem: Using known records, supply cytotoxicity at 10 µM for Cc1noc(C2CCCN(Cn3cc(Cl)cn3)C2)n1 (stereo not drawn)
Solution: 2.42

Problem: Consider the molecule CC(=O)N1CCN(C(=O)NCCCc2cn[nH]c2C)CC1 and give its recorded cytotoxicity at 10 µM.
Solution: 12.1

Problem: Consider the molecule Cc1ccc(OCCC(=O)N2CCN(c3cnccn3)CC2)cc1C . State its measured cytotoxicity at 10 µM.
Solution: -12.2

Problem: Give recorded cytotoxicity at 10 µM. CC(C)[C@H](Nc1cc(-c2ccncc2)nc2ccnn12)C(N)=O
Solution: 0.782

Problem: Complete the entry with cytotoxicity at 10 µM for CC(C)n1nnc2c(sc3nc(N4CCOCC4)c4c(c32)CCC4)c1=O
Solution: 3.26

Problem: Please supply the value of reported cytotoxicity at 10 µM for the item Cc1ccc(NCc2cccc3cn[nH]c23)cc1OC1CCOC1 (stereo not drawn)
Solution: 1.44

Problem: Return the recorded cytotoxicity at 10 µM value; entry: CSCC(=O)N1CCOC(c2nc(C)n[nH]2)C1 (stereo not drawn)
Solution: 0.986

Problem: Please give measured cytotoxicity at 10 µM of the following entry: Cc1c[nH]c(CN2CCCCC2CCn2cccn2)c(C)c1=O (stereo not drawn)
Solution: 3.69

Problem: Read the entry CCc1nc(CN2CCOC(CN(C)c3cccnn3)C2)cs1 (stereo not drawn) and write its reported cytotoxicity at 10 µM.
Solution: 5.35

Problem: For Cc1noc(C)c1NC(=O)NC1CCN(C(=O)OC(C)(C)C)CC1 , write its cytotoxicity at 10 µM.
Solution: 4.77

Problem: Read off the recorded cytotoxicity at 10 µM for CC1C(=O)NCCN1CCOc1ccc(C#N)cc1 (stereo not drawn)
Solution: 2.29

Problem: Hello, please tell me recorded cytotoxicity at 10 µM for this one: O=C(NCc1ccccc1)N1CCc2ncnc(NC3CC3)c2CC1
Solution: -100

Problem: Return cytotoxicity at 10 µM for the following molecule: COC(=O)c1cccc(NCC(=O)NC(N)=O)c1
Solution: 6.88

Problem: Name the recorded cytotoxicity at 10 µM of the molecule listed here: Cn1[nH]c(CNc2cccc(Cl)c2)nc1=O
Solution: -0.165

Problem: Specify measured cytotoxicity at 10 µM for Cc1nc2cc(-c3nccn3C)nn2c(N2CCC(O)CC2)c1C .
Solution: -3.31

Problem: Specify reported cytotoxicity at 10 µM for the molecule shown: CCN(CC)S(=O)(=O)N(Cc1ccccn1)Cc1ccccc1C
Solution: 16.9

Problem: Identify cytotoxicity at 10 µM associated with the molecule COc1c(C2CCCN2C(=O)c2ccnc(C)n2)c(C)nn1C (stereo not drawn)
Solution: -12

Problem: Complete the entry with cytotoxicity at 10 µM for CC1CCC2(CC1)NC(=O)c1cc(Br)ccc1-n1nnnc12 (stereo not drawn)
Solution: 10.1

Problem: Output measured cytotoxicity at 10 µM for this item: O=C(C1CCOCC1)N1C[C@@H]2CC[C@H]1CN(Cc1ccncc1)C2
Solution: -11

Problem: Give reported cytotoxicity at 10 µM value for NC(CNS(=O)(=O)Cc1cccc2cccnc12)c1ccccc1 (stereo not drawn)
Solution: -5.39

Problem: Quickly give me recorded cytotoxicity at 10 µM for O=c1ccc2c([nH]1)CCN(S(=O)(=O)c1ccc3c(c1)OCCO3)C2
Solution: -3.06

Problem: Answer with the recorded cytotoxicity at 10 µM for the molecule listed here: CN1CCN(c2nc(-c3cnn(C)c3)cs2)CC1
Solution: -0.186

Problem: Quickly give me recorded cytotoxicity at 10 µM for NC(=O)C1CCCN(C(=O)c2cccc(OCc3cscn3)c2)C1 (stereo not drawn)
Solution: -7.98

Problem: Give the reported value of cytotoxicity at 10 µM for this record: CC(NC(=O)NC1CCN(Cc2ccccn2)CC1)c1ccco1 (stereo not drawn)
Solution: 13.9

Problem: Consider the molecule COCC(O)CNC(=O)c1coc(COc2cccc(F)c2)n1 (stereo not drawn) . State its measured cytotoxicity at 10 µM.
Solution: -139

Problem: Look up and state reported cytotoxicity at 10 µM for COc1cc(Cl)cc(CN2CCCC(N3CCOCC3)C2)c1OC (stereo not drawn)
Solution: 0.944

Problem: Return reported cytotoxicity at 10 µM. Input molecule: O=C1CCCN1Cc1ncn2c1CN(C(=O)NC1CCCCC1)CCC2
Solution: -150

Problem: Fill in reported cytotoxicity at 10 µM for this entry: CCCC1(C(=O)O)CCCN(C(=O)c2cc(Cl)ccc2F)C1 (stereo not drawn)
Solution: 0.515

Problem: Give me measured cytotoxicity at 10 µM, please, for this molecule: COc1ccccc1S(=O)(=O)N1CC(N(C)C)Cc2ccccc21 (stereo not drawn)
Solution: 0.243

Problem: Read off the recorded cytotoxicity at 10 µM for CCOc1ccc2[nH]c(=O)c(CN3CCC(n4cnnc4)CC3)cc2c1
Solution: -0.966

Problem: Give recorded cytotoxicity at 10 µM. CC(O)CN1CCN(C(=O)c2ccn(-c3ccc(F)cc3)n2)CC1 (stereo not drawn)
Solution: -6.11

Problem: Quote cytotoxicity at 10 µM reported for Cc1nc(CN2CCCCC2CCc2ccc(O)cc2)no1 (stereo not drawn) please.
Solution: 1.18

Problem: Tell us which cytotoxicity at 10 µM value is on record for COc1cc(C)c(CNC(C)c2csc(C)n2)cc1OC (stereo not drawn)
Solution: 5.06

Problem: Return cytotoxicity at 10 µM (reported value) for this molecule: NC(=O)C1CN(Cc2c[nH]cn2)CCN(C2CCOCC2)C1 (stereo not drawn)
Solution: 3.83

Problem: Fill in reported cytotoxicity at 10 µM for this entry: CC(C)NC(=O)CCNC(=O)c1c(Br)c2ccccc2n1C
Solution: 8.59

Problem: Give cytotoxicity at 10 µM for the following molecule: CC(=O)NCCNC(=O)c1sc(-c2ccc(Cl)s2)nc1C
Solution: -1.28

Problem: Consider the molecule Cc1occc1C(=O)N1C[C@@H]2OCCN(c3ncccn3)[C@@H]2C1 and give its recorded cytotoxicity at 10 µM.
Solution: 7.34

Problem: Tell me cytotoxicity at 10 µM reported for COc1nc(C)cc(C)c1CNC(=O)N(C)Cc1cnn(C)c1
Solution: -4.64

Problem: Tell us which cytotoxicity at 10 µM value is on record for CCCC1(CO)CCCN(Cc2ncccn2)C1 (stereo not drawn)
Solution: -1.89

Problem: Hello, please tell me recorded cytotoxicity at 10 µM for this one: Cc1cnn(CCNCc2nc(Cc3ccccc3)no2)c1
Solution: -7.7

Problem: Given the molecule CN(C)c1cc(C2CCCN2C(=O)c2ccc(=O)n(C)c2)ccn1 (stereo not drawn) , write its reported cytotoxicity at 10 µM.
Solution: -23.9

Problem: Note cytotoxicity at 10 µM for the molecule shown: Cc1noc(C)c1-c1n[nH]c2c1CN(S(=O)(=O)c1cccs1)CC2
Solution: -12.1

Problem: Consider the molecule Cc1ccc(N2C[C@H]3CCC[C@@]3(COc3cccnc3)C2)nn1 . State its measured cytotoxicity at 10 µM.
Solution: 9.43
